Procedure text: folding stability dG unfold (combined trypsin and chymotrypsin); higher = more stable
# folding stability dG unfold values compiled below

Some solved cases for reference:
Sequence code	Experimental endpoint	Result
SAGGSAGGSAKPVYKIRIVVKKDGKEFVKEIEVPEDEEEAEALAKELAKKPEVEKVEVEKVSAGGSAGGSAG [r3_310_TrROS_Hall]	folding stability dG unfold	1.62 kcal/mol
SAGLKFSITKAEWENGYLTVKVMVTGPDGQSQPFTITIRIKPVPKPPPKMTEEKDPNGKKKWEYKDPDSAGG [r19_172_TrROS]	folding stability dG unfold	2.47 kcal/mol
SAGGSAGGSFEILEVHPVKDGWLMIVVRTPGKMKVITIPPDDLDEIPGLDDIAIFPVKDGEPISAGGSAGGS [r12_343_TrROS]	folding stability dG unfold	1.38 kcal/mol

Could you now look at the following sequence, please?
Qu. Give me measured folding stability dG unfold, please, for this sequence: SAGSVEVSVSGNEIHITAPEGISLEELIELIKKLFPGADIGEVSVEKLPDGRYVATFKAGFKPPSPDELSAG [r5_110_TrMRF]
Ans. 4.34 kcal/mol

====

Procedure text: folding stability dG unfold from trypsin proteolysis; higher = more stable
# folding stability dG unfold values compiled below
I'd appreciate it if you included the unit after the number.

Some solved cases for reference:
Sequence code	folding stability dG unfold
SAGMPLYRIRVHPDIPDRIEITEVDAEDLPPGAVLKIRFRETGETVEVPLSDLDELLALPGIEEVELVSAGG [r19_302_TrROS_Hall]	0.305 kcal/mol
STITIEVETPEELEKALVEAEKLVEKGKDVKIEIFVRNENGETLKLTFDIKQLPDGIPVLEIEVEPVPPPSA [r9_1023_TrMRF]	1.89 kcal/mol
SAGGSAGGKKEIKIYLVSDLPEEDAIETAEKIKKGLAEELGVSPEELNITVEVAILDPENLELNPESAGGSA [r15_918_TrMRF]	0.179 kcal/mol
SAKKAEEIAEKVEKTIKEAAKEKGYDVNIKVKATKGKDGKVTVYIDFDSPENAKEFIEKLPKSVNVVIASAG [r14_491_TrMRF]	1.3 kcal/mol
SAGGSAGGSAGGMTLRIRVRNKDGKVLEIEVEVDEDKTPEEVARELAKKLNVEKVEIFPSAGGSAGGSAGGS [r10_400_TrROS_Hall]	2.2 kcal/mol

Qu. Give me measured folding stability dG unfold, please, for this sequence: SAGGSAGGSAKLVKITFSNGEELVLPADKFSIEAIKSLPVPAKVEVFDVPKSDTNLEDLLKSAGGSAGGSAG [r3_69_TrMRF]
Ans. 0.72 kcal/mol

Qu. Give me measured folding stability dG unfold, please, for this sequence: SAGGPLEVTLVESETTFLPEGKVVTREVTRLPDDTILVTTYTTTIDPNSGTTTTTSETVVLPAGAALSAGGS [r16_639_JUSTAS]
Ans. 2.11 kcal/mol

Qu. Give me measured folding stability dG unfold, please, for this sequence: SAAEPPPVYLVRITVKVPPGVKPLPPGAVVTYDPATGTLTVYVLMTADEIDALAAAPGVEITDIEVIKLDSA [r9_827_TrROS_Hall]
Ans. 3.16 kcal/mol

Qu. Give me measured folding stability dG unfold, please, for this sequence: SAGGSAGGKIRVEVEVEPLPGPEEGGRLLRVRVRVYNENGELLEEIEFPARSPEEAEERLRKAASAGGSAGG [r6_974_TrMRF]
Ans. 2.05 kcal/mol

Qu. Give me measured folding stability dG unfold, please, for this sequence: SMITIEINVGNKKYTVEIVPEKGIIKITDPNGTPIGEGEIKPDSIDITLTKPNTDETYKFTFPIPPESLPSA [r9_963_JUSTAS]
Ans. 2.29 kcal/mol

Qu. Give me measured folding stability dG unfold, please, for this sequence: SAGGMVFKTKDGYLVRIEVFNKETGEKTEILVPEENIEELLKALESKPGVTEVKVEIYKLKDGKPEKLSAGG [r13_914_TrROS_Hall]
Ans. 0.862 kcal/mol

Qu. Give me measured folding stability dG unfold, please, for this sequence: SAGKPKKKKRTITIPIEHNPNNGNFTIKIRWPGRPVTVPFPGDDPEEMLDNMLNELENRLGWPIDEVEISAG [r5_251_TrROS]
Ans. 0.932 kcal/mol

Qu. Give me measured folding stability dG unfold, please, for this sequence: SAGGMEVVFVVGSPEVAEAFREKHPDLPFVPVSLEDYRNPAPFEAAVAAVEARGHAVRVITVPDDPESAGGS [r8_376_JUSTAS]
Ans. 0.0526 kcal/mol

Qu. Give me measured folding stability dG unfold, please, for this sequence: SSSAEIRAYRFPDFWLVEIDLRDGDKLVGTAVFPNDGSVSLEEVAEAFRAAHPDFDVEISAIEPVPPPPPSA [r9_364_TrMRF]
Ans. 1.71 kcal/mol

====

# folding stability dG unfold values compiled below
Procedure text: folding stability dG unfold (combined trypsin and chymotrypsin); higher = more stable
The answer is to be given in kcal/mol; state only the numeric part.

Qu. Give me measured folding stability dG unfold, please, for this sequence: SAGGMPVTVEITVDLVLDPRYRPRPVYPPGETWREPERRVLPVTFTATFGDPEDAERAAVELLRALGVSAGG [r13_35_TrMRF]
Ans. 1.45

Qu. Give me measured folding stability dG unfold, please, for this sequence: SAGGSAGGSAGGKLKPGQKVLVIELKVTKVKTKKDGKKEFEFEITRIEIVEVPEGAKILSAGGSAGGSAGGS [r10_826_TrROS_Hall]
Ans. 1.46

Qu. Give me measured folding stability dG unfold, please, for this sequence: MRFEFPLEDGGRVEVEMRPLPDGPVVLDVKITLPNGEEITIPFVFPREEFPDMDMEEIARRVVEEAIRLAKS [r1_92_TrMRF]
Ans. 4.77

====

Procedure text: folding stability dG unfold from chymotrypsin proteolysis; higher = more stable
# folding stability dG unfold values compiled below

Sequence code	folding stability dG unfold
SAGGSAGGVTINFPDGVTIMVDPGTGKIYIMNPNGYIFKFTIERKPNEWKLKIEPIKPIPPDDFSAGGSAGG [r6_324_TrROS]	15.5 kJ/mol
SAGPLPEDVAAGKPVDVEAPIPLRRKDGDLLAVFPITGPMTVKELLEVLEAIRERARELDLPPVEDLDRSAG [r5_606_TrMRF]	-1.12 kJ/mol
SAGGSAGGSAGGGMSVKVTVKDPVNGTTSVYELSVPPGVSNVVINVKTPDNSTVTKVTLESAGGSAGGSAGG [r7_687_JUSTAS]	5.34 kJ/mol

Qu. Give me measured folding stability dG unfold, please, for this sequence: SAGGSAGGSAGLPEEIADFVKEILEKAFPNVKVLEVEVEELPEGFYVVRARFEDGSEVEFPISAGGSAGGSA [r18_423_TrMRF]
Ans. 14.5 kJ/mol

====

Procedure text: folding stability dG unfold from trypsin proteolysis; higher = more stable
# folding stability dG unfold values compiled below
The answer is to be given in kcal/mol; state only the numeric part.

Some solved cases for reference:
Sequence code	Quantity unit	Numeric result
SAGGSAGGKKVIVKIKIKVKDKETGEEKEIEITLEFETEEEAKAAIEALKALPPGVEIKIELLPSAGGSAGG [r6_999_TrROS_Hall]	kcal/mol	4.42
SAGGSAGGSAGGSGSITITYSSDGDKYSATFTVPDGTVVTVPNMSVDEAKKVAEKFLKSSAGGSAGGSAGGS [r4_383_JUSTAS]	kcal/mol	-0.389
SAGGGMGRIPLYGEERVEEIAAEPDVVSVEEDPETGRTYVYFERPDGYYSFTRDNETGEITEKTPLPSAGGS [r8_251_JUSTAS]	kcal/mol	-0.462
SASLANGGLRVDVELEFDPETHEIRVKRLTLYRGDEPVATADATIAVPPAAPPPPPVVVLDPDVPFDNESAG [r14_571_TrMRF]	kcal/mol	0.687
SAGGSAKPVIVKIHFPNMKPEKILELAKEFGAVPLKMDPNKGVAIVLATEEKVEEIAAKGNFKIEASAGGSA [r15_731_TrMRF]	kcal/mol	0.736

Qu. Give me measured folding stability dG unfold, please, for this sequence: SAMPVFTFPVEIPGPEYTPEEIVAILKEAAAKLNLPVDEEVIRELAEKALAEGTTVADIIEEILKRGLGSAG [r14_364_JUSTAS]
Ans. 3.07

Qu. Give me measured folding stability dG unfold, please, for this sequence: SAGGSASLEEVIESVTKPLGAKGEIDPETGVTYVQDPSGENLTLETEDGRPLKVTYEPEGKWTAVESAGGSA [r15_256_JUSTAS]
Ans. 0.301

====

Procedure text: folding stability dG unfold (combined trypsin and chymotrypsin); higher = more stable
Label Met when folding stability dG unfold is at or above 2 kcal/mol; anything below gets Not met.

Solved entries:
Sequence code	Group
SAGGKVVVVPFPGPVTPETVAALAAKFIEEGLYDVPLVVVSEVEGRRPDGRPGRRRFGFVYVAKAPKSAGGS [r16_44_TrMRF]	Not met
SAGGSAGGGMSFTLTSEKKVPGVNVTLTTVTGPGVTITYDPATGKATVEFPDSVTTVPLSSITTSAGGSAGG [r6_512_JUSTAS]	Not met
SAGGSMTLTEVSYEGDKVVTTTTTFTPGAPALTSSTTTTPIPPVPLGPRPVIFFEPVSEMRPLALVSAGGSA [r2_332_JUSTAS]	Not met
SAGGSAGGSAGGLEIVKEVIKNPLKNEPVEVLILIEKKEEPIEKTDLFEIPVKITIIPLSAGGSAGGSAGGS [r10_459_JUSTAS]	Not met
SAGGSAGGSAGMMTLKTGSVTIVRPVPAEEAPAPPEVPGAEELTRTEVVKTEVELLPAELLSAGGSAGGSAG [r3_488_JUSTAS]	Not met
MKPLTPDEVKELAKFIANMIRRRMRENGIKDVEIPVKVEPDPNGWYWINVSITFKYNGKPIGRFPIEIWVRS [r1_364_TrROS]	Met

Qu. Textbook exercise: given the entry SAMERVEIVVKVKVRPDMSLEELKERVERELRRLLEERGIELPEGAKITVEIVEETEDYVVVKVTIELPSAG [r14_735_TrROS_Hall] , state whether its folding stability dG unfold is greater than or equal to 2 kcal/mol.
Ans. Met

Qu. Textbook exercise: given the entry SAGGPPIRIKVELWDPNGKEYTHTFPFGEPLDQILDNASKQFGLPLRVEDIEYDPDGMITITIRIPDSAGGS [r8_285_TrROS] , state whether its folding stability dG unfold is greater than or equal to 2 kcal/mol.
Ans. Not met

Qu. Textbook exercise: given the entry SMKITTDPVNKTISATFPPGTDPLAETQKIVDEVKKKENSGDITITFSTGNTTINYTLGTNTVTTTPAGTSA [r9_224_JUSTAS] , state whether its folding stability dG unfold is greater than or equal to 2 kcal/mol.
Ans. Not met

Qu. Textbook exercise: given the entry SAGGSAMIKTYEEEVELTVPGGSTPVKVRVKTIEKIEKDEKGNLKTEVVEVKIETPENAPAVALLLSAGGSA [r15_258_JUSTAS] , state whether its folding stability dG unfold is greater than or equal to 2 kcal/mol.
Ans. Not met

Qu. Textbook exercise: given the entry SAGGSAGGSKTYKIKVEKLEDGTYKLKIIDKKTKKEYEITISKKNLPKIKEIKITKNGKIEIKSAGGSAGGS [r20_11_TrROS_Hall] , state whether its folding stability dG unfold is greater than or equal to 2 kcal/mol.
Ans. Met
